Kindly state MFI for each of the entries shown.
Biological target: T1, human BLyS (full length, arginine to histidine at position 132) on CHO-K1 cells (human, UniProt Q9Y275 1-285)
T1 construct: also called hBLyS; CHO-K1 hBLyS
T1 sequence (Q9Y275 whole entry R130H): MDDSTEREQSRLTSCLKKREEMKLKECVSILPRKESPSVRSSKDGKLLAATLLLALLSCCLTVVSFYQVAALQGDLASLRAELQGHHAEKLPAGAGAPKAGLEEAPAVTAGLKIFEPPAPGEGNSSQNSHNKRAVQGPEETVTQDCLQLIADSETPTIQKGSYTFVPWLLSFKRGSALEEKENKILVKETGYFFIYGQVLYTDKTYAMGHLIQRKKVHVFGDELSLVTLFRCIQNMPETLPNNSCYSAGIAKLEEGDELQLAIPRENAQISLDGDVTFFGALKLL
Assay: flow cytometry, CHO-K1 hBLyS cells, antibody 13.3 nM
Quick reminder: number only, in MFI, skip the unit.

So, 93C6F10D3 (antibody, V domains shown, Mouse hybridoma monoclonal antibody purified on Protein G) VH: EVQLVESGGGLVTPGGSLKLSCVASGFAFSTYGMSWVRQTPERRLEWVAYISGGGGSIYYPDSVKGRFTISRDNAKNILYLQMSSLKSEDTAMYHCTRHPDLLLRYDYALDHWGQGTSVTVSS VL: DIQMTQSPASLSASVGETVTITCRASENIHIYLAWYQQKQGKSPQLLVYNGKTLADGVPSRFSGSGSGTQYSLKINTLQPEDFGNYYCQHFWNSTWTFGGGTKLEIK ? Its MFI was 327

So, 111D10D6G3 (antibody, V domains shown, Mouse hybridoma monoclonal antibody purified on Protein G) VH: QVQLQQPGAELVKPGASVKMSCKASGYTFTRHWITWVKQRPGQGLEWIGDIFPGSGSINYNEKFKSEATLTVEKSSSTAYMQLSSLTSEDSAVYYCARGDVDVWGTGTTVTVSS VL: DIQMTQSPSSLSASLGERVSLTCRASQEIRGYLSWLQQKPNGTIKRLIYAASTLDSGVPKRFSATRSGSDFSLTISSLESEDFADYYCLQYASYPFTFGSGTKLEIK ? Its MFI was 276
